For each record, write down the corresponding Ratio.
# TARGET_DESC: Cholecystokinin receptor (Homo sapiens) (UniProt P32239+P32238)
# Sequence (P32238 whole entry, looked up): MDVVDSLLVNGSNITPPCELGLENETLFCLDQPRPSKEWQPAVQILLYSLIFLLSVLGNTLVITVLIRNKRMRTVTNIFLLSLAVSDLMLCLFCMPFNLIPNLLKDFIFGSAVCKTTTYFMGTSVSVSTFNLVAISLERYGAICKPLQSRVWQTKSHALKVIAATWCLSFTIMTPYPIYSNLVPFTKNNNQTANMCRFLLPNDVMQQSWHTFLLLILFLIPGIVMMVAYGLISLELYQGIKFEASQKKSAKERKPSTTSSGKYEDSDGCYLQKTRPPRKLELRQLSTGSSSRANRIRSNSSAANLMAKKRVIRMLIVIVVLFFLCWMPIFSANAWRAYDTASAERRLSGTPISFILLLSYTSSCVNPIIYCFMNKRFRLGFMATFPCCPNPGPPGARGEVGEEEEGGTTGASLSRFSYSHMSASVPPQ
# Sequence (P32239 whole entry, looked up): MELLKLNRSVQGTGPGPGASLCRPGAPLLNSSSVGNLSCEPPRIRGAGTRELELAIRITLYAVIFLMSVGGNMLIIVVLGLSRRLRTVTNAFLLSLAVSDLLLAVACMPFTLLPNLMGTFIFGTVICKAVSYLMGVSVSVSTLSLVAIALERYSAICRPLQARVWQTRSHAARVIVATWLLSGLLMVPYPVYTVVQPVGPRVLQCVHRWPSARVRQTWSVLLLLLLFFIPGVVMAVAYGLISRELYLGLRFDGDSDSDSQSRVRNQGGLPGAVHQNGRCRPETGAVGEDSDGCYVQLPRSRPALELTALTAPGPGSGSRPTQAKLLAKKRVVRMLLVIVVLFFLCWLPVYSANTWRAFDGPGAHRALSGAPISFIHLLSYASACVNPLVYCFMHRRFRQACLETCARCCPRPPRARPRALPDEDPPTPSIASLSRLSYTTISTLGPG
# ASSAY_INFO: Ratio of inhibitory activity of CCK-A to CCK-B was reported.
# Assay type: protein assay
Give the value as a plain number.

Exercise: Report measured Ratio; entry is O=C(Nc1cccc(-c2nn[nH]n2)c1)NC1N=C(c2ccccc2F)c2cccc(Cl)c2N(CC(=O)N2CC3CCC(CC3)C2)C1=O (centres undefined)
Key: 20

Exercise: Report measured Ratio; entry is CCc1cccc2c1N(CC(=O)N1CC3CCC(CC3)C1)C(=O)C(NC(=O)Nc1cccc(-c3nn[nH]n3)c1)N=C2c1ccccc1F (centres undefined)
Key: 22

Exercise: Report measured Ratio; entry is O=C(Nc1cccc(-c2nn[nH]n2)c1)NC1N=C(c2ccccc2F)c2ccccc2N(CC(=O)N2CC3CCC(CC3)C2)C1=O (centres undefined)
Key: 710

Exercise: Report measured Ratio; entry is Cc1cccc2c1N(CC(=O)N1CC3CCC(CC3)C1)C(=O)C(NC(=O)Nc1cccc(-c3nn[nH]n3)c1)N=C2c1ccccc1F (centres undefined)
Key: 21

* * *

# ASSAY_INFO: Compound was evaluated for the inhibition of […] I-CCK-8 binding at Cholecystokinin type B receptor on guinea pig cerebral cortical membranes
PROPERTY: pIC50
Scale: negative log10 of molar concentration, which is what pIC50 denotes.

Exercise: Report measured pIC50; entry is Cc1cccc2c1N(CC(=O)N1CC3CCC(CC3)C1)C(=O)C(NC(=O)Nc1cccc(-c3nn[nH]n3)c1)N=C2c1ccccc1F (stereo unspecified)
Key: 9.17

* * *

# TARGET_DESC: Cholecystokinin receptor type A (Rattus norvegicus, UniProt P30551)
# Sequence (P30551 whole entry): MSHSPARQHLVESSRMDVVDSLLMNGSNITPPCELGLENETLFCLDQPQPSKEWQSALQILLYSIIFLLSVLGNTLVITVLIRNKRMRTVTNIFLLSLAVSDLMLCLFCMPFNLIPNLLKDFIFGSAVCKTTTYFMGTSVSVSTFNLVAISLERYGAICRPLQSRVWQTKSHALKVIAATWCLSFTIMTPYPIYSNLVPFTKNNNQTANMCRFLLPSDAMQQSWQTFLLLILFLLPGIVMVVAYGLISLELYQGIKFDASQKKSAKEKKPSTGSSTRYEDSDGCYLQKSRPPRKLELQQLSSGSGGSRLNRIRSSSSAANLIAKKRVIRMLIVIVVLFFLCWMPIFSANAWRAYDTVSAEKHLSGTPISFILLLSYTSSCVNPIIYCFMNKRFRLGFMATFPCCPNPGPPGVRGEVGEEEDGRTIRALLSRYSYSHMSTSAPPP
# ASSAY_INFO: Compound was evaluated for the inhibition of […] I-CCK-8 binding at Cholecystokinin type A receptor in rat pancreatic membranes
For each record, write down the corresponding IC50.
Number first, unit second.

Exercise: Report measured IC50; entry is O=C(Nc1cccc(-c2nnn[nH]2)c1)NC1N=C(c2ccccc2F)c2cccc(Cl)c2N(CC(=O)N2CC3CCC(CC3)C2)C1=O (stereo not drawn)
Key: 13 nM

Exercise: Report measured IC50; entry is CCc1cccc2c1N(CC(=O)N1CC3CCC(CC3)C1)C(=O)C(NC(=O)Nc1cccc(-c3nnn[nH]3)c1)N=C2c1ccccc1F (stereo not drawn)
Key: 18 nM

Exercise: Report measured IC50; entry is O=C(Nc1cccc(-c2nnn[nH]2)c1)NC1N=C(c2ccccc2F)c2ccccc2N(CC(=O)N2CC3CCC(CC3)C2)C1=O (stereo not drawn)
Key: 62 nM
